Reference for the values: ChEMBL document CHEMBL1201862

Tested on: ACHN
Assay: NCI tumour cell line growth inhibition, 48 h
The source made the active and inactive calls. Rule as the data show it: active = GI50 up to about 1.1 µM and inactive = higher.
Outcomes: Yes = active, No = inactive

compound	measurement-target	category-label
COc1ccc(N2C(=O)C3c4[nH]c5ccccc5c4C4C(C)CCCC4C3C2=O)cc1 (centres undefined)	ACHN	No
O=[N+]([O-])/C(C(Cl)=C(Cl)Cl)=C1\NCCO1	ACHN	No
COc1cc(/C=C/C(=O)OC[C@]23O[C@H]2[C@@H](OC2OC(C)C(O)C(O)C2O)C2C=CO[C@@H](OC4OC(CO)C(O)C(O)C4O)C23)ccc1O (some centres undefined)	ACHN	No
CCC(/C=C/C1OC(=O)C=CC1C)=C\C(C)C/C=C/C(C)=C/C(C)C(=O)C(C)C(O)C(C)C/C(C)=C/C(=O)O (centres undefined)	ACHN	Yes

###

Test system: TK-10
Experiment: NCI tumour cell line growth inhibition, 48 h
Active and inactive are the calls of the source. Cut-off read from the data, not from the text of the source: active = GI50 up to about 1.1 µM and inactive = higher.
Labels: active, inactive

compound	category-label
C=CCc1cccc(C(=O)/C=C(O)/C=C/c2ccccc2Cl)c1O	inactive
CCOC(=O)CC1(N)CC2c3ccccc3OC(=O)C2C(=O)N1 (stereo not drawn)	inactive
CCCCCCCCCCCCCC(=O)NCC(OCC)OCC	inactive
COc1ccc(C(Cc2cc(OC)c(OC)c(OC)c2)C(=O)O)cc1 (stereo not drawn)	inactive
CC(=O)O[C@H]1C[C@H](O[C@H]2[C@@H](O)C[C@H](O[C@H]3[C@@H](O)C[C@H](O[C@H]4CC[C@@]5(C)[C@H](CC[C@@H]6[C@@H]5C[C@@H](O)[C@]5(C)[C@@H](C7=CC(=O)OC7)CC[C@]65O)C4)O[C@@H]3C)O[C@@H]2C)O[C@H](C)[C@H]1O[C@@H]1O[C@H](CO)[C@@H](O)[C@H](O)[C@H]1O [LANATOSIDE C]	active
CC(C)=CCC/C(C)=C/COc1c2ccoc2cc2oc(=O)ccc12	inactive
CCC(C)C(Nc1c2ccccc2nc2c(C(=O)NCCN(C)C)cccc12)C(=O)O (stereo not drawn)	inactive
COC1=CC(=O)c2c(cc(COP(N)(=O)N(CCCl)CCCl)n2C)C1=O (stereo not drawn)	inactive
ClCC1(CCl)COC1	inactive
CC(C)CC(=O)NC(NC(C)C)(C(F)(F)F)C(F)(F)F	inactive
CC(=O)OC(OC(C)=O)n1cc(C=O)c2ccccc21	inactive
c1ccc(CSC2(SCc3ccccc3)CCCC2)cc1	inactive
Cc1ccc(C(O)c2cnc(C)n2Cc2ccccc2)cc1 (stereo not drawn)	inactive
Cc1cc(C)n(C(=C(C(Cl)=C(Cl)Cl)[N+](=O)[O-])n2nc(C)cc2C)n1	inactive
COC(=O)C(Cc1c(C2Nc3ccccc3C2CC(NC(=O)CNC(C)=O)C(=O)OC)[nH]c2ccccc12)NC(=O)CNC(C)=O (stereo not drawn)	inactive
CCOC(=O)c1cc2cc(N(C(C)=O)C(C)=O)ccc2s1	inactive
Cc1ccc(S(=O)(=O)c2[nH]cc(/C(=C\C3CCCCC3)[N+](=O)[O-])c2C2CCCCC2)cc1	active
Cc1ccc2c(c1)[nH]c(=S)n2C=C(C(N)=O)C(N)=O	inactive
O=[N+]([O-])c1ccc(-c2ccc(/C=N/n3c(S)nnc3-c3ccc(Cl)cc3)o2)cc1	inactive
Cc1c(CC/C(=N\Nc2ccc([N+](=O)[O-])cc2[N+](=O)[O-])c2ccccc2)c2ccccc2n1C	inactive
Cc1noc(NS(=O)(=O)c2ccc(NC(=O)c3ccc4[nH]c5ccccc5c(=O)c4c3)cc2)c1C	inactive
CC(=O)N1c2cc(/N=N/N(C)C)ccc2NC(=O)CC1C (stereo not drawn)	inactive
O=C(NNC(=O)c1ccc(Cl)cc1NC(=O)C12CC3CC(CC(C3)C1)C2)c1ccc(Cl)cc1	inactive
